Origin of the recorded values: ChEMBL document CHEMBL1147487

experiment: In vitro inhibition of human recombinant cytosolic phospholipase A2 (c-PLA2).
Observable: pIC50
Units for pIC50: none; it is -log10 of a concentration expressed in mol/L.

INSERT INTO assay_data (compound, quantitative_result) VALUES
  ('O=C(COc1ccc(SCCCCSc2nccs2)cc1)COc1ccc(C(=O)O)cc1', 6.12),
  ('O=C(COc1ccc(SCCCCCc2ccccc2)cc1)COc1ccc(C(=O)O)cc1', 7.10),
  ('O=C(COc1ccc(C(=O)O)cc1)COc1ccc(C(=O)OCCCCCc2ccccc2)cc1', 7.30),
  ('O=C(COc1ccc(OCCCCCC2CCCO2)cc1)COc1ccc(C(=O)O)cc1 (configuration not stated)', 5.28),
  ('O=C(COc1ccc(OCCCCCc2ccccc2)cc1)COc1ccc(C(=O)O)cc1', 6.34);

Note: attention shifts to another entry.
Asked: Requested read-out: pIC50. Entry: O=C(COc1ccc(C(=O)O)cc1)COc1ccc(-c2noc(CCCCc3ccccc3)n2)cc1
Given back: 6.57

---

test: In vitro inhibition of human recombinant cytosolic phospholipase A2 (c-PLA2).
// NB: equality with 200 nM counts as not satisfied; only IC50 strictly below is satisfied

Asked: Bench note: check whether O=C(COc1ccc(C(=O)O)cc1)COc1ccc2c(c1)C(=O)N(CCCCc1ccccc1)C2=O shows IC50 below 200 nM
Given back: satisfied

Asked: Bench note: check whether CCCCCCCCCCOc1ccc(OCC(=O)COc2ccc(C(=O)O)cc2)cc1 shows IC50 below 200 nM
Given back: satisfied

Asked: Bench note: check whether O=C(COc1ccc(OCCCCSc2nc3ccccc3o2)cc1)COc1ccc(C(=O)O)cc1 shows IC50 below 200 nM
Given back: satisfied

Asked: Bench note: check whether CN(CCc1ccccc1)C(=O)CSc1ccc(OCC(=O)COc2ccc(C(=O)O)cc2)cc1 shows IC50 below 200 nM
Given back: not satisfied

Asked: Bench note: check whether CCOCCCCCCCOc1ccc(OCC(=O)COc2ccc(C(=O)O)cc2)cc1 shows IC50 below 200 nM
Given back: not satisfied

---

assay: In vitro inhibition of human recombinant cytosolic phospholipase A2 (c-PLA2).
# pIC50 values compiled below
Units for pIC50: none; it is -log10 of a concentration expressed in mol/L.

INSERT INTO assay_data (molecule, quantitative_result) VALUES
  ('Cn1ccnc1SCCCCOc1ccc(OCC(=O)COc2ccc(C(=O)O)cc2)cc1', 4.20),
  ('O=C(COc1ccc(SCCCCCc2ccco2)cc1)COc1ccc(C(=O)O)cc1', 7.10),
  ('O=C(COc1ccc(C(=O)O)cc1)COc1ccc([S+]([O-])CCCCCc2ccccc2)cc1 (stereo unspecified)', 5.74),
  ('O=C(COc1ccc(C(=O)O)cc1)COc1ccc(-c2noc(Cc3ccc(Cl)c(Cl)c3)n2)cc1', 7.05),
  ('O=C(COc1ccc(C(=O)O)cc1)COc1ccc2c(c1)C(=O)N(Cc1ccc(Cl)c(Cl)c1)C2=O', 6.25),
  ('O=C(COc1ccc(SCCCCC(=O)N2CCCCC2)cc1)COc1ccc(C(=O)O)cc1', 4.92);

Asked: Requested read-out: pIC50. Entry: O=C(COc1ccc(C(=O)O)cc1)COc1ccc(S(=O)(=O)CCCCCc2ccccc2)cc1
Given back: 6.00

Asked: Requested read-out: pIC50. Entry: O=C(COc1ccc(OCc2ccc(Cl)c(Cl)c2)cc1)COc1ccc(C(=O)O)cc1
Given back: 6.60

Asked: Requested read-out: pIC50. Entry: O=C(COc1ccc(C(=O)O)cc1)COc1ccc(C(=O)NCCCCc2ccccc2)cc1
Given back: 4.70

Asked: Requested read-out: pIC50. Entry: O=C(COc1ccc(C(=O)O)cc1)COc1ccc(-c2noc(-c3ccc(Cl)c(Cl)c3)n2)cc1
Given back: 7.40

Asked: Requested read-out: pIC50. Entry: O=C(COc1ccc(OCCCCCc2ccco2)cc1)COc1ccc(C(=O)O)cc1
Given back: 6.23
